Target: PepX (X-prolyl dipeptidyl aminopeptidase) (Lactobacillus helveticus)
Construct: His-tagged recombinant full-length PepX (homodimer)
Sequence (Q59485 whole entry): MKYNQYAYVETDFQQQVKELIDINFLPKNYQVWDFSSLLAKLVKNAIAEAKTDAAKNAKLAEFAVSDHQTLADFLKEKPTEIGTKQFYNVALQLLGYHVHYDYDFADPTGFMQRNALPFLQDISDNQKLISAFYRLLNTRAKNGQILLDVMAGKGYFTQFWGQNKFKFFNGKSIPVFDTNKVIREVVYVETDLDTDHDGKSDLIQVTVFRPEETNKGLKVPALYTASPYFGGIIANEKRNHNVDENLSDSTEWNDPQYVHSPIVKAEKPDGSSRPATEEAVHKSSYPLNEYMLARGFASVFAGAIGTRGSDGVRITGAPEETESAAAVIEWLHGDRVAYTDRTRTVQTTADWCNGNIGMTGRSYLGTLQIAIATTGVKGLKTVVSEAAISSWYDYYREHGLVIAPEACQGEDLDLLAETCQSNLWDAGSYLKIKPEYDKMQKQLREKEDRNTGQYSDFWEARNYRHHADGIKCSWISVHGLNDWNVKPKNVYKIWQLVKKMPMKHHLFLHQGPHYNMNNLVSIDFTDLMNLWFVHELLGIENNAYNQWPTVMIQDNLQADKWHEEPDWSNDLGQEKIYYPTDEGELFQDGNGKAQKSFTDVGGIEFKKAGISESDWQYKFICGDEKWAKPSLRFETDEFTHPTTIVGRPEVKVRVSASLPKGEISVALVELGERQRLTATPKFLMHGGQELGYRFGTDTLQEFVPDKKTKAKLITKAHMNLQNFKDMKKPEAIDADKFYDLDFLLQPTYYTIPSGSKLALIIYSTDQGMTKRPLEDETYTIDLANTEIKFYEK
Assay: product inhibition kinetics with H-Ala-Pro-pNA, Lineweaver-Burk
Residues, ends and D or L forms follow the SMILES beside them.
quantityKind: Ki (mM)

INSERT INTO results (molecule, valueunits, measuredvalue) VALUES
  ('N[C@@H](Cc1ccccc1)C(=O)N1CCC[C@H]1C(=O)O [H-L-Phe-L-Pro-OH] (H-Phe-Pro-OH)', 'mM', 30.1);
